- Protocol details: ACEA_AR_agonist_AUC_viability: ACEA Biosciences xCELLigence Real-Time Cell Analysis on Androgen Receptor Agonism for Viability (AID 2283775);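 on AC50: viability read 80 hours after compound addition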
Inconclusive results are not listed. Calls of active or inactive are those of the source. How the source made its calls: active means hit-call score of the fitted dose curve at least 0.9, where 1 is the maximum; inconclusive means response in the unintended direction; inactive means score below 0.9.
Property measured: AC50

Examples from the recorded data:
Molecule | Property measured | Measured
ClC1C(Cl)C(Cl)C(Cl)C(Cl)C1Cl (centres undefined) | AC50 | inactive
CC1(C)C(C=C(Cl)Cl)C1C(=O)OC(C#N)c1ccc(F)c(Oc2ccccc2)c1 (centres undefined) | AC50 | 67.2 µM (active)
O=C(NC(=O)c1c(F)cccc1F)Nc1ccc(OC(F)(F)C(F)OC(F)(F)F)c(Cl)c1 (centres undefined) | AC50 | inactive
Oc1cc(Cl)ccc1Oc1ccc(Cl)cc1Cl | AC50 | 17.3 µM (active)

Query "Oc1ccc(Cl)cc1Cc1ccccc1" yields AC50 of 18.2 µM (active)

Query CC[C@H](C)[C@H]1O[C@]2(C=C[C@@H]1C)C[C@@H]1C[C@@H](C/C=C(\C)[C@@H](O[C@H]3C[C@H](OC)[C@@H](O[C@H]4C[C@H](OC)[C@@H](O)[C@H](C)O4)[C@H](C)O3)[C@@H](C)/C=C/C=C3\CO[C@@H]4[C@H](O)C(C)=C[C@@H](C(=O)O1)[C@]34O)O2 (tested in a mixture with another compound) yields AC50 of 4.08 µM (active)

* * *

- Read-out: Cytochrome P450 2B6 (Homo sapiens) (UniProt P20813)
- Protocol details: CLD_CYP2B6_48hr: CellzDirect (CLD) Gene Expression Assay for xenobiotic metabolism (CYP2B6) at 48 hours (AID 2283699);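 further: actives raise transcript level above DMSO so potency reflects induction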
Results filed as inconclusive are left out. Activity calls are given as the source filed them. How the source made its calls: active means hit-call score of the fitted dose curve at least 0.9, where 1 is the maximum; inconclusive means response in the unintended direction; inactive means score below 0.9.
Field 'call' accepts 1 (active), -1 (inactive)

Task: Give the logged outcome of this assay for the following molecule: "O=[N+]([O-])c1c(Cl)c(Cl)c(Cl)c(Cl)c1Cl"
Result: 1

Task: Give the logged outcome of this assay for the following molecule: ClC1C(Cl)C(Cl)C(Cl)C(Cl)C1Cl (centres undefined)
Result: 1

Task: Give the logged outcome of this assay for the following molecule: "CNC(=O)Oc1ccccc1OC(C)C"
Result: 1

Task: Give the logged outcome of this assay for the following molecule: "O=C(Nc1ccccc1)Nc1cnns1"
Result: 1

Task: Give the logged outcome of this assay for the following molecule: "CCS(=O)(=O)c1cccnc1S(=O)(=O)NC(=O)Nc1nc(OC)cc(OC)n1"
Result: -1

Task: Give the logged outcome of this assay for the following molecule: "Cc1cc(C)nc(NC(=O)NS(=O)(=O)c2ccccc2C(=O)OC2COC2)n1"
Result: -1

Task: Give the logged outcome of this assay for the following molecule: "CCC(C)(C)C(=O)OC1=C(c2ccc(Cl)cc2Cl)C(=O)OC12CCCCC2"
Result: -1

Task: Give the logged outcome of this assay for the following molecule: "CNC(=O)/C=C(\C)OP(=O)(OC)OC"
Result: -1

Task: Give the logged outcome of this assay for the following molecule: "C[C@H]1[C@H](c2ccc(Cl)cc2)SC(=O)N1C(=O)NC1CCCCC1"
Result: 1

* * *

- Target entity: human Dopamine Receptor D2 (DRD2), DRD2 (gene 1813) (UniProt P14416)
- Sequence (P14416 whole entry, looked up): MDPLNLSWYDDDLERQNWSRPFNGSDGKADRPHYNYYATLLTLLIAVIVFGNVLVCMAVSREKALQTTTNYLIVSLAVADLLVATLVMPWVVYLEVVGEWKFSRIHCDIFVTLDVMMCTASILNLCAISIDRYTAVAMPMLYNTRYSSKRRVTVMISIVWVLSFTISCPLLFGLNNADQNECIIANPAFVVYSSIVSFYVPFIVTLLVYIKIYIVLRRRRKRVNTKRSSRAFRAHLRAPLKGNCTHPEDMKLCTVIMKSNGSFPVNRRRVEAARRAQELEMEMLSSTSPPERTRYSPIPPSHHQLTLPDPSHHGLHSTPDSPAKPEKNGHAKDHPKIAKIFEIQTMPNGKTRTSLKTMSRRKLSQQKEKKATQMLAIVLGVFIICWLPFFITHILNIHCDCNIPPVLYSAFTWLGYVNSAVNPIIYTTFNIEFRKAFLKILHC
- Protocol details: NVS_GPCR_hDRD2s: NovaScreen (NVS) G Protein-Coupled Receptor Assay for human Dopamine Receptor D2 (DRD2) (AID 2283266)
Inconclusive results are not listed. Active and inactive are the calls of the source. How the source made its calls: active means hit-call score of the fitted dose curve at least 0.9, where 1 is the maximum; inconclusive means response in the unintended direction; inactive means score below 0.9.
Property measured: AC50

Chemical string | Property measured | Measured
O=S(=O)(O)C(F)(F)C(F)(F)C(F)(F)C(F)(F)C(F)(F)C(F)(F)C(F)(F)C(F)(F)F | AC50 | 7.24 µM (active)
Oc1ccc(Cl)cc1Cc1ccccc1 | AC50 | 33.5 µM (active) [middle of 6 runs]
O=C(O)C(F)(F)C(F)(F)C(F)(F)C(F)(F)C(F)(F)C(F)(F)C(F)(F)F | AC50 | inactive
Oc1cc(Cl)ccc1Oc1ccc(Cl)cc1Cl | AC50 | inactive

* * *

- Protocol details: CCTE_Mundy_HCI_iCellGluta_NOG_NeuronCount: CCTE's Neurite Outgrowth Assay in iCellGluta cells for Neuron Count, Mundy Lab (AID 2284340);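 further: cells fixed about 48 h after compound addition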
Records with an inconclusive call do not appear. Activity calls are given as the source filed them. The calls were made as follows: active = hit-call score of the fitted dose curve at least 0.9, where 1 is the maximum; inconclusive = response in the unintended direction; inactive = score below 0.9.
Property measured: AC50

Compound | AC50
CNC(=O)CSP(=S)(OC)OC | inactive
CC[C@H](C)[C@H]1O[C@]2(C=C[C@@H]1C)C[C@@H]1C[C@@H](C/C=C(\C)[C@@H](O[C@H]3C[C@H](OC)[C@@H](O[C@H]4C[C@H](OC)[C@@H](O)[C@H](C)O4)[C@H](C)O3)[C@@H](C)/C=C/C=C3\CO[C@@H]4[C@H](O)C(C)=C[C@@H](C(=O)O1)[C@]34O)O2 (tested in a mixture with another compound) | 3.77 µM (active)
CC(C)N(C(=O)COc1nnc(C(F)(F)F)s1)c1ccc(F)cc1 | inactive
COP(=O)(OC)OC=C(Cl)Cl | inactive
O=S(=O)(O)C(F)(F)C(F)(F)C(F)(F)C(F)(F)C(F)(F)C(F)(F)C(F)(F)C(F)(F)F | inactive
O=C(O)C(F)(F)C(F)(F)C(F)(F)C(F)(F)C(F)(F)C(F)(F)C(F)(F)F | inactive
O=S1OCC2C(CO1)C1(Cl)C(Cl)=C(Cl)C2(Cl)C1(Cl)Cl (stereo not drawn) | 13.8 µM (active)

Now look at this entry.
Query CC1(c2ccc(Oc3ccccc3)cc2)OC(=O)N(Nc2ccccc2)C1=O (stereo not drawn) yields AC50 of 50 µM (active)

* * *

- Protocol details: CCTE_Mundy_HCI_Cortical_NOG_NeuriteCount: CCTE's Neurite Outgrowth Assay in rat cortical cells for Neurite Count, Mundy Lab (AID 2284212);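 further: cells fixed about two days after chemical exposure began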
The source made the active and inactive calls. How the source made its calls: active means hit-call score of the fitted dose curve at least 0.9, where 1 is the maximum; inactive means score below 0.9.
Property measured: AC50

Examples from the recorded data:
Molecule | AC50
CC(C)N(C(=O)COc1nnc(C(F)(F)F)s1)c1ccc(F)cc1 | inactive
O=S1OCC2C(CO1)C1(Cl)C(Cl)=C(Cl)C2(Cl)C1(Cl)Cl (stereo not drawn) | 22.1 µM (active)
COP(=S)(OC)Oc1ccc([N+](=O)[O-])cc1 | 23.4 µM (active)
O=S(=O)(O)C(F)(F)C(F)(F)C(F)(F)C(F)(F)C(F)(F)C(F)(F)C(F)(F)C(F)(F)F | inactive
CC[C@H](C)[C@H]1O[C@]2(C=C[C@@H]1C)C[C@@H]1C[C@@H](C/C=C(\C)[C@@H](O[C@H]3C[C@H](OC)[C@@H](O[C@H]4C[C@H](OC)[C@@H](O)[C@H](C)O4)[C@H](C)O3)[C@@H](C)/C=C/C=C3\CO[C@@H]4[C@H](O)C(C)=C[C@@H](C(=O)O1)[C@]34O)O2 (tested in a mixture with another compound) | 8.88 µM (active)
O=C(O)C(F)(F)C(F)(F)C(F)(F)C(F)(F)C(F)(F)C(F)(F)C(F)(F)F | inactive

Query CC1(c2ccc(Oc3ccccc3)cc2)OC(=O)N(Nc2ccccc2)C1=O (stereo not drawn) yields AC50 of 55.8 µM (active)

Query "CCC(C)(C)C(=O)OC1=C(c2ccc(Cl)cc2Cl)C(=O)OC12CCCCC2" yields AC50 of inactive

* * *

- Protocol details: ATG_TAL_CIS: Attagene CIS-FACTORIAL HepG2 Assay for human TAL Basal Promoter (AID 2282966);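 further: background control endpoint measuring basal TAL promoter reporter mRNA not a specific factor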
- Condition notes: HepG2 Attagene cis-factorial TAL promoter reporter; actives raise or lower the signal
Active and inactive are the calls of the source. Rule for the calls: active = hit-call score of the fitted dose curve at least 0.9, where 1 is the maximum; inactive = score below 0.9.
Property measured: outcome

Examples from the recorded data:
Compound | Measured
CCOC1Oc2ccc(OS(C)(=O)=O)cc2C1(C)C (stereo unspecified) | inactive
CC1(C)C(C=C(Cl)Cl)C1C(=O)OC(C#N)c1ccc(F)c(Oc2ccccc2)c1 (stereo unspecified) | inactive
COC(=O)c1ccccc1S(=O)(=O)NC(=O)Nc1nc(C)nc(OC)n1 | inactive
COP(=S)(OC)Oc1ccc(SC)c(C)c1 | inactive
CCC(C)(C)C(=O)OC1=C(c2ccc(Cl)cc2Cl)C(=O)OC12CCCCC2 | inactive
O=S(=O)(O)C(F)(F)C(F)(F)C(F)(F)C(F)(F)C(F)(F)C(F)(F)C(F)(F)C(F)(F)F | inactive
Cc1[nH]c(=O)n(C(C)(C)C)c(=O)c1Cl | inactive
O=C1c2ccccc2C(=O)N1SC(Cl)(Cl)Cl | inactive

Query "CNC(=O)Oc1ccccc1OC(C)C" yields outcome of inactive

Query "Clc1ccccc1-c1nnc(-c2ccccc2Cl)nn1" yields outcome of inactive

Query "[2H]C1([2H])[n+]2ccccc2-c2cccc[n+]2C1([2H])[2H]" yields outcome of inactive

* * *

- Read-out: Cytochrome P450 (CYP2B6), CYP2B6 (gene 1555)
- Protocol details: LTEA_HepaRG_CYP2B6: Life Technologies and Expression Analysis (LTEA) Assay for Cytochrome P450 (CYP2B6) using HepaRG (AID 2283481)
- Condition notes: mRNA level, 48 h; actives raise or lower the signal
The source made the active and inactive calls. The calls were made as follows: active = hit-call score of the fitted dose curve at least 0.9, where 1 is the maximum; inactive = score below 0.9.
Field 'call' accepts 1 = active, 0 = inactive

Task: Give the logged outcome of this assay for the following compound: "CCCN(CCC)c1c([N+](=O)[O-])cc(C(F)(F)F)cc1[N+](=O)[O-]"
Result: 1

Task: Give the logged outcome of this assay for the following compound: "O=S(=O)(O)C(F)(F)C(F)(F)C(F)(F)C(F)(F)C(F)(F)C(F)(F)C(F)(F)C(F)(F)F"
Result: 1

Task: Give the logged outcome of this assay for the following compound: "CNC(=O)Oc1cccc(N=CN(C)C)c1"
Result: 0

Task: Give the logged outcome of this assay for the following compound: "Oc1ccc(Cl)cc1Cc1ccccc1"
Result: 0

Task: Give the logged outcome of this assay for the following compound: "COP(=O)(OC)OC=C(Cl)Cl"
Result: 1

Task: Give the logged outcome of this assay for the following compound: "CCN(CC)C(=O)SCc1ccc(Cl)cc1"
Result: 1

Task: Give the logged outcome of this assay for the following compound: "N#Cc1c(Cl)c(Cl)c(Cl)c(C#N)c1Cl"
Result: 0

Task: Give the logged outcome of this assay for the following compound: "CCC(C)(C)C(=O)OC1=C(c2ccc(Cl)cc2Cl)C(=O)OC12CCCCC2"
Result: 0

Task: Give the logged outcome of this assay for the following compound: "O=C(O)CCCOc1ccc(Cl)cc1Cl"
Result: 1

Task: Give the logged outcome of this assay for the following compound: "CN1CSC(=S)N(C)C1"
Result: 0

Task: Give the logged outcome of this assay for the following compound: "Cc1[nH]c(=O)n(C(C)(C)C)c(=O)c1Cl"
Result: 1

Task: Give the logged outcome of this assay for the following compound: "O=[N+]([O-])/N=C1\NCCN1Cc1ccc(Cl)nc1"
Result: 1

Task: Give the logged outcome of this assay for the following compound: "Clc1ccccc1-c1nnc(-c2ccccc2Cl)nn1"
Result: 1

Task: Give the logged outcome of this assay for the following compound: "OCCOc1ccccc1"
Result: 1

Task: Give the logged outcome of this assay for the following compound: CC1(c2ccc(Oc3ccccc3)cc2)OC(=O)N(Nc2ccccc2)C1=O (configuration not stated)
Result: 1

Task: Give the logged outcome of this assay for the following compound: "O=[N+]([O-])c1c(Cl)c(Cl)c(Cl)c(Cl)c1Cl"
Result: 1

Task: Give the logged outcome of this assay for the following compound: O=C(NC(=O)c1c(F)cccc1F)Nc1ccc(OC(F)(F)C(F)OC(F)(F)F)c(Cl)c1 (configuration not stated)
Result: 0

Task: Give the logged outcome of this assay for the following compound: CC1(C)C(C=C(Cl)Cl)C1C(=O)OC(C#N)c1ccc(F)c(Oc2ccccc2)c1 (configuration not stated)
Result: 1

Task: Give the logged outcome of this assay for the following compound: CC[C@H](C)[C@H]1O[C@]2(C=C[C@@H]1C)C[C@@H]1C[C@@H](C/C=C(\C)[C@@H](O[C@H]3C[C@H](OC)[C@@H](O[C@H]4C[C@H](OC)[C@@H](O)[C@H](C)O4)[C@H](C)O3)[C@@H](C)/C=C/C=C3\CO[C@@H]4[C@H](O)C(C)=C[C@@H](C(=O)O1)[C@]34O)O2 (tested in a mixture with another compound)
Result: 1

Task: Give the logged outcome of this assay for the following compound: "CNC(=O)CSP(=S)(OC)OC"
Result: 1

Task: Give the logged outcome of this assay for the following compound: "CNC(=O)Oc1ccccc1OC(C)C"
Result: 1

Task: Give the logged outcome of this assay for the following compound: "O=C(Nc1ccccc1)Nc1cnns1"
Result: 0

Reference source for all entries: PubChem BioAssay (EPA / NIEHS)
